method: pKa of demiditraz
Assay type: physicochemical
experimental_context: weak base
endpoint: pKa
Provide a numeric answer; units are not to be included.

Input: Please give the documented pKa of "Cc1cccc([C@H](C)c2ncc[nH]2)c1C"
Output: 7.2

Source listed as patent US20120316210A1.
